Reported kinase still bound, per cent of control is given for each of the following molecules.
Biological target: TIE1 (human) (UniProt P35590)
Sequence (P35590 whole entry, looked up): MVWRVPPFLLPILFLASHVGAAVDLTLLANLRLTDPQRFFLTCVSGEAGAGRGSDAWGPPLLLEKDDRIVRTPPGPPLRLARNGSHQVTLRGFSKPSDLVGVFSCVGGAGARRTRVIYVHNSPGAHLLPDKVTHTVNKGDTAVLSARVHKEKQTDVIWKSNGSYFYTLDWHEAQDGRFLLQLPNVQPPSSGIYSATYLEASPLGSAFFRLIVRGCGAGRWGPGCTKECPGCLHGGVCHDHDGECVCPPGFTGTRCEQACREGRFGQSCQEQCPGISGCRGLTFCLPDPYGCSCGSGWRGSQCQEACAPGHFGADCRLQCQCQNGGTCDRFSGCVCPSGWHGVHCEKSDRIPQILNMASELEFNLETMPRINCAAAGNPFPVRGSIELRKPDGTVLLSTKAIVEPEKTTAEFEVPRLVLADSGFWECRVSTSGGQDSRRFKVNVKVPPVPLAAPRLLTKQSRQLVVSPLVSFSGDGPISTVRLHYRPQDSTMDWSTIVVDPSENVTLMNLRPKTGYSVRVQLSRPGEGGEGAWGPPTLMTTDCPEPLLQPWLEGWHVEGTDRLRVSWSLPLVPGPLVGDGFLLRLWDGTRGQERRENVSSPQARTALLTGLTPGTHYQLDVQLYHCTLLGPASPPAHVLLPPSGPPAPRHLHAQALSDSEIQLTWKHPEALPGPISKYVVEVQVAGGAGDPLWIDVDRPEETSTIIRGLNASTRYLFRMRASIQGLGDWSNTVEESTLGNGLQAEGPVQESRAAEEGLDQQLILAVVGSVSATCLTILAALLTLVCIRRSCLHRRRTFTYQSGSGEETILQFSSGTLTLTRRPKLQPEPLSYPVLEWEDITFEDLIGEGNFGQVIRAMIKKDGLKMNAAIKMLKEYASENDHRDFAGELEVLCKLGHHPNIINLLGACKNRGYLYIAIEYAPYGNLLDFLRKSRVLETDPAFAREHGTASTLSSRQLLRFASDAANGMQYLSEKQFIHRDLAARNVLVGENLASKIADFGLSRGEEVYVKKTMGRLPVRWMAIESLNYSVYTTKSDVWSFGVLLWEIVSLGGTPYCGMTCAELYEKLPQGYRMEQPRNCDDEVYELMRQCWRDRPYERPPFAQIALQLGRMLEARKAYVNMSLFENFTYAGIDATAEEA
Assay: KINOMEscan competition binding
Conditions: compound 10.0 µM
Write the value in % as a bare number.

Look over these answered cases.
Sample smiles | Target system | Unit | Reported
COC(=O)Nc1ccc(-c2nc(N3CCOCC3)c3cnn(C4CCN(C(=O)OC)CC4)c3n2)cc1 | TIE1 (human) (UniProt P35590) | % | 99
CC(C)n1nc(-c2cc3cc(O)ccc3[nH]2)c2c(N)ncnc21 | TIE1 (human) (UniProt P35590) | % | 49
CCC(=O)N1CCN(c2ccc(-n3c(=O)ccc4cnc5ccc(-c6cnc7ccccc7c6)cc5c43)cc2C(F)(F)F)CC1 | TIE1 (human) (UniProt P35590) | % | 100

Consider now this further molecule.
Summary for this molecule, "COc1ccc(-c2ccc3c(N4CCOCC4)nc(N4C[C@@H](C)O[C@@H](C)C4)nc3n2)cc1CO" : kinase still bound, per cent of control is 100

----------
Target: NUAK2 (human) (UniProt Q9H093)
Sequence (Q9H093 whole entry, looked up): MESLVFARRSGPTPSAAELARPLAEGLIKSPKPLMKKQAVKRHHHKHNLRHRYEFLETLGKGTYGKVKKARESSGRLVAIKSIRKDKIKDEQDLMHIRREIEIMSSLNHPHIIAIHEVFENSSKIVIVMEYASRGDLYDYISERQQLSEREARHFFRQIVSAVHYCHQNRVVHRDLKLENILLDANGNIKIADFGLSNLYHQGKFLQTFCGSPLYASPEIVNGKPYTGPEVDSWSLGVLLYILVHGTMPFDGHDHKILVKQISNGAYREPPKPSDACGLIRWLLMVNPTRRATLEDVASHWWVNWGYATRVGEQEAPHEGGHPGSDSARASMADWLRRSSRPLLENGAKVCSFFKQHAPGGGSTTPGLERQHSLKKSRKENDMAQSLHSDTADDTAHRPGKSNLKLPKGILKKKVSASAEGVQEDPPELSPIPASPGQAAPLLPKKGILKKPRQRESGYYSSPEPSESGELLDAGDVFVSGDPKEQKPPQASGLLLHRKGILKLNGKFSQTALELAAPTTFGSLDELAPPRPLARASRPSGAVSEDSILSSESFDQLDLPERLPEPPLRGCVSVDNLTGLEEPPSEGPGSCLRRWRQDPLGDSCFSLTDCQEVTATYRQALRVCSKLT
Experiment: KINOMEscan competition binding
Settings: compound 10.0 µM
Outcome measure: kinase still bound, per cent of control

Look over these answered cases.
Sample smiles | Reported
CC(C)n1nc(-c2cc3cc(O)ccc3[nH]2)c2c(N)ncnc21 | 9.2%
CCC(=O)N1CCN(c2ccc(-n3c(=O)ccc4cnc5ccc(-c6cnc7ccccc7c6)cc5c43)cc2C(F)(F)F)CC1 | 100%
COc1ccc(-c2ccc3c(N4CCOCC4)nc(N4C[C@@H](C)O[C@@H](C)C4)nc3n2)cc1CO | 100%

Consider now this further compound.
Measured on NUAK2 (human) (UniProt Q9H093), "COC(=O)Nc1ccc(-c2nc(N3CCOCC3)c3cnn(C4CCN(C(=O)OC)CC4)c3n2)cc1" has a documented kinase still bound, per cent of control of 84%

----------
Reported kinase still bound, per cent of control is given for each of the following compounds.
Target: HCK (human) (UniProt P08631)
Sequence (P08631 whole entry, looked up): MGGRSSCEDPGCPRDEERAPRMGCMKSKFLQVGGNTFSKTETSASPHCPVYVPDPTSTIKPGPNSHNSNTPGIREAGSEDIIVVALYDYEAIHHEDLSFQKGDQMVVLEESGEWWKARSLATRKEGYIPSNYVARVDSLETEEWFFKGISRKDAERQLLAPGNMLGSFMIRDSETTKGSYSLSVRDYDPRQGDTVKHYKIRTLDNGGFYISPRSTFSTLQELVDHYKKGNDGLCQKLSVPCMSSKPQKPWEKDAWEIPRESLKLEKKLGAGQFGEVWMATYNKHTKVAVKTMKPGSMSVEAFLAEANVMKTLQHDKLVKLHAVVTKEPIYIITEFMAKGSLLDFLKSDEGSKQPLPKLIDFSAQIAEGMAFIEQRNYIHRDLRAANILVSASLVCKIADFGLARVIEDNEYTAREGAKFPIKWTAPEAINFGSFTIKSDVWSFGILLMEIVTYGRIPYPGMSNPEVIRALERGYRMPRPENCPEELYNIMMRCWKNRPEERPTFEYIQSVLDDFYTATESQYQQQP
Test: KINOMEscan competition binding
Settings: compound 10.0 µM

Look over these answered cases.
Sample smiles | Target system | kinase still bound, per cent of control
CCC(=O)N1CCN(c2ccc(-n3c(=O)ccc4cnc5ccc(-c6cnc7ccccc7c6)cc5c43)cc2C(F)(F)F)CC1 | HCK (human) (UniProt P08631) | 77%
CC(C)n1nc(-c2cc3cc(O)ccc3[nH]2)c2c(N)ncnc21 | HCK (human) (UniProt P08631) | 2.5%
COc1ccc(-c2ccc3c(N4CCOCC4)nc(N4C[C@@H](C)O[C@@H](C)C4)nc3n2)cc1CO | HCK (human) (UniProt P08631) | 100%

Consider now this further compound.
Measured on HCK (human) (UniProt P08631), "COC(=O)Nc1ccc(-c2nc(N3CCOCC3)c3cnn(C4CCN(C(=O)OC)CC4)c3n2)cc1" has a documented kinase still bound, per cent of control of 100%

----------
Reported kinase still bound, per cent of control is given for each of the following compounds.
Target: EPHA5 (human)
Assay: KINOMEscan competition binding
Conditions: compound 10.0 µM

Look over these answered cases.
Sample smiles | Target system | kinase still bound, per cent of control
COC(=O)Nc1ccc(-c2nc(N3CCOCC3)c3cnn(C4CCN(C(=O)OC)CC4)c3n2)cc1 | EPHA5 (human) | 100%
CCC(=O)N1CCN(c2ccc(-n3c(=O)ccc4cnc5ccc(-c6cnc7ccccc7c6)cc5c43)cc2C(F)(F)F)CC1 | EPHA5 (human) | 100%
CC(C)n1nc(-c2cc3cc(O)ccc3[nH]2)c2c(N)ncnc21 | EPHA5 (human) | 55%

Consider now this further compound.
Summary for this compound, "COc1ccc(-c2ccc3c(N4CCOCC4)nc(N4C[C@@H](C)O[C@@H](C)C4)nc3n2)cc1CO" : kinase still bound, per cent of control is 94%

----------
Target: PIP4K2B (human) (UniProt P78356)
Sequence (P78356 whole entry, looked up): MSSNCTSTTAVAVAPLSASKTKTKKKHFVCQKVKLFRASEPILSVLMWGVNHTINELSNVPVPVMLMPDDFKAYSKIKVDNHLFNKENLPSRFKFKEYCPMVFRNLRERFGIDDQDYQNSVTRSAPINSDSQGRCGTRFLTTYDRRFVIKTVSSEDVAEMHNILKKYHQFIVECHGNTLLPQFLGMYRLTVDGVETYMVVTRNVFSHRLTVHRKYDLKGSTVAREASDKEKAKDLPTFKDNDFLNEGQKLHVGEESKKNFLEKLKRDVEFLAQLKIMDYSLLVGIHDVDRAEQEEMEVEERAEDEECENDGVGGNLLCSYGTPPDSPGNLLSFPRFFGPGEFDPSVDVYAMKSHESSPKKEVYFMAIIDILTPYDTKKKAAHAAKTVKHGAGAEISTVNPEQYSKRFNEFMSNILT
Assay: KINOMEscan competition binding
Settings: compound 10.0 µM
Reported kinase still bound, per cent of control is given for each of the following compounds.
Write the value in % as a bare number.

Sample smiles | Target system | Unit | kinase still bound, per cent of control
COC(=O)Nc1ccc(-c2nc(N3CCOCC3)c3cnn(C4CCN(C(=O)OC)CC4)c3n2)cc1 | PIP4K2B (human) (UniProt P78356) | % | 100

Summary for this compound, "CC(C)n1nc(-c2cc3cc(O)ccc3[nH]2)c2c(N)ncnc21" : kinase still bound, per cent of control is 55

Summary for this compound, "CCC(=O)N1CCN(c2ccc(-n3c(=O)ccc4cnc5ccc(-c6cnc7ccccc7c6)cc5c43)cc2C(F)(F)F)CC1" : kinase still bound, per cent of control is 100

Summary for this compound, "COc1ccc(-c2ccc3c(N4CCOCC4)nc(N4C[C@@H](C)O[C@@H](C)C4)nc3n2)cc1CO" : kinase still bound, per cent of control is 100

----------
Target: MARK3 (human) (UniProt P27448)
Sequence (P27448 whole entry, looked up): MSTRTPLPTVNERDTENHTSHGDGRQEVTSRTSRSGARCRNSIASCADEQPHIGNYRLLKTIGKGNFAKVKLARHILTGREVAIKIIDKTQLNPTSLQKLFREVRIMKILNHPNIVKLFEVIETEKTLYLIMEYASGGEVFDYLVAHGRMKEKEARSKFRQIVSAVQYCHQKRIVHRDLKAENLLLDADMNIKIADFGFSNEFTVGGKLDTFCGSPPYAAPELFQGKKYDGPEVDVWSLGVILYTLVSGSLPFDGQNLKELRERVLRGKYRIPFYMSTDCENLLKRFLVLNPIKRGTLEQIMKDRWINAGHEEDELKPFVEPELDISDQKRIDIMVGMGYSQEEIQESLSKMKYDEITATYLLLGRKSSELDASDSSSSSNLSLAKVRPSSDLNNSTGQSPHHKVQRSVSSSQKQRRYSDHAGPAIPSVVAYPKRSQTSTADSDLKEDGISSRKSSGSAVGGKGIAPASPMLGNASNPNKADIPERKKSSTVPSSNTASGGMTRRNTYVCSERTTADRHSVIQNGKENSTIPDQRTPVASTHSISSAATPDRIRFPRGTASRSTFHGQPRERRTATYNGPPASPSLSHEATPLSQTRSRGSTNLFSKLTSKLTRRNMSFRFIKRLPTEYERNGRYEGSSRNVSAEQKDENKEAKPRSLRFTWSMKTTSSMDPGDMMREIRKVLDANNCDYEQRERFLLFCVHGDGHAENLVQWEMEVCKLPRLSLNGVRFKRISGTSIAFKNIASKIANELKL
Conditions: compound 10.0 µM
Reported per cent of control is given for each of the following compounds.
Write the value in % as a bare number.

Summary for this compound, "COC(=O)Nc1ccc(-c2nc(N3CCOCC3)c3cnn(C4CCN(C(=O)OC)CC4)c3n2)cc1" : per cent of control is 107

Summary for this compound, "CCC(=O)N1CCN(c2ccc(-n3c(=O)ccc4cnc5ccc(-c6cnc7ccccc7c6)cc5c43)cc2C(F)(F)F)CC1" : per cent of control is 98

Summary for this compound, "CC(C)n1nc(-c2cc3cc(O)ccc3[nH]2)c2c(N)ncnc21" : per cent of control is 31

Summary for this compound, "COc1ccc(-c2ccc3c(N4CCOCC4)nc(N4C[C@@H](C)O[C@@H](C)C4)nc3n2)cc1CO" : per cent of control is 93

----------
Target: MAPK4 (human)
Assay: KINOMEscan competition binding
Conditions: compound 10.0 µM
Outcome measure: kinase still bound, per cent of control (%)
Write the value in % as a bare number.

Look over these answered cases.
Sample smiles | Target system | Outcome measure | Unit | Reported
CCC(=O)N1CCN(c2ccc(-n3c(=O)ccc4cnc5ccc(-c6cnc7ccccc7c6)cc5c43)cc2C(F)(F)F)CC1 | MAPK4 (human) | kinase still bound, per cent of control | % | 80
COC(=O)Nc1ccc(-c2nc(N3CCOCC3)c3cnn(C4CCN(C(=O)OC)CC4)c3n2)cc1 | MAPK4 (human) | kinase still bound, per cent of control | % | 68
COc1ccc(-c2ccc3c(N4CCOCC4)nc(N4C[C@@H](C)O[C@@H](C)C4)nc3n2)cc1CO | MAPK4 (human) | kinase still bound, per cent of control | % | 100

Consider now this further compound.
Summary for this compound, "CC(C)n1nc(-c2cc3cc(O)ccc3[nH]2)c2c(N)ncnc21" : kinase still bound, per cent of control is 75

----------
Target: PIM1 (human) (UniProt P11309)
Sequence (P11309 whole entry, looked up): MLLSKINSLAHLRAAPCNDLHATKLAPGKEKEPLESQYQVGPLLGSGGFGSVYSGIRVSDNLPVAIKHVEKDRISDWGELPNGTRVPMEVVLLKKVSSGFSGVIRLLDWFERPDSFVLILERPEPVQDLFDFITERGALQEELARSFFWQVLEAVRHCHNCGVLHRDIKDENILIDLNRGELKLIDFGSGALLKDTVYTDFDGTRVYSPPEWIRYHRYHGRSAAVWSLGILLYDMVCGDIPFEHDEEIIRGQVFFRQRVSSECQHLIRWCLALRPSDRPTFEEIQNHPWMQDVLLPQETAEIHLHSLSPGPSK
Settings: compound 10.0 µM
Outcome measure: per cent of control (%)
Write the value in % as a bare number.

Look over these answered cases.
Sample smiles | Unit | per cent of control
CCC(=O)N1CCN(c2ccc(-n3c(=O)ccc4cnc5ccc(-c6cnc7ccccc7c6)cc5c43)cc2C(F)(F)F)CC1 | % | 24
CC(C)n1nc(-c2cc3cc(O)ccc3[nH]2)c2c(N)ncnc21 | % | 21
COC(=O)Nc1ccc(-c2nc(N3CCOCC3)c3cnn(C4CCN(C(=O)OC)CC4)c3n2)cc1 | % | 103

Consider now this further molecule.
Summary for this molecule, "COc1ccc(-c2ccc3c(N4CCOCC4)nc(N4C[C@@H](C)O[C@@H](C)C4)nc3n2)cc1CO" : per cent of control is 98

----------
Target: IKBKB (human) (UniProt O14920)
Sequence (O14920 whole entry, looked up): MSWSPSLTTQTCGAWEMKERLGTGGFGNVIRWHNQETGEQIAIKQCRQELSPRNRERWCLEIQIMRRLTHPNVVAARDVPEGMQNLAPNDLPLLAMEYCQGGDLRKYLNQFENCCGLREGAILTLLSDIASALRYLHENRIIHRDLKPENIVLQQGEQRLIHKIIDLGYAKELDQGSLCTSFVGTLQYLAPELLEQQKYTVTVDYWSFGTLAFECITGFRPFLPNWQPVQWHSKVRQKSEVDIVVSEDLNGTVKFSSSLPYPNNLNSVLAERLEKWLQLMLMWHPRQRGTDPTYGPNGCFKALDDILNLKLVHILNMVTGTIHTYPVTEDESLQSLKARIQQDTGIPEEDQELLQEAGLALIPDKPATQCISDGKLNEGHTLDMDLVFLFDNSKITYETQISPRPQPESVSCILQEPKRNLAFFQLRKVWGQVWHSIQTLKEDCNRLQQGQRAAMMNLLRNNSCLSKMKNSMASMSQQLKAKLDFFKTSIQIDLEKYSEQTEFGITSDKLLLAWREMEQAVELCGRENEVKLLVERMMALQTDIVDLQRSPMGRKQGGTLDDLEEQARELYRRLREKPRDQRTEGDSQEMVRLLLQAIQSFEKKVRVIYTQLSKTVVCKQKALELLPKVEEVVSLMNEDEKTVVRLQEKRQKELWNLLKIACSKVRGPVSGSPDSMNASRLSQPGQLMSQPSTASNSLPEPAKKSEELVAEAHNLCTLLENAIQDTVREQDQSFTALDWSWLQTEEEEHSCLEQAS
Test: KINOMEscan competition binding
Settings: compound 10.0 µM
Outcome measure: kinase still bound, per cent of control (%)
Write the value in % as a bare number.

Look over these answered cases.
Sample smiles | Target system | kinase still bound, per cent of control / %
CCC(=O)N1CCN(c2ccc(-n3c(=O)ccc4cnc5ccc(-c6cnc7ccccc7c6)cc5c43)cc2C(F)(F)F)CC1 | IKBKB (human) (UniProt O14920) | 61
CC(C)n1nc(-c2cc3cc(O)ccc3[nH]2)c2c(N)ncnc21 | IKBKB (human) (UniProt O14920) | 84
COC(=O)Nc1ccc(-c2nc(N3CCOCC3)c3cnn(C4CCN(C(=O)OC)CC4)c3n2)cc1 | IKBKB (human) (UniProt O14920) | 74

Consider now this further compound.
Summary for this compound, "COc1ccc(-c2ccc3c(N4CCOCC4)nc(N4C[C@@H](C)O[C@@H](C)C4)nc3n2)cc1CO" : kinase still bound, per cent of control is 100

----------
Reported kinase still bound, per cent of control is given for each of the following compounds.
Biological target: PRKX (human) (UniProt P51817)
Sequence (P51817 whole entry, looked up): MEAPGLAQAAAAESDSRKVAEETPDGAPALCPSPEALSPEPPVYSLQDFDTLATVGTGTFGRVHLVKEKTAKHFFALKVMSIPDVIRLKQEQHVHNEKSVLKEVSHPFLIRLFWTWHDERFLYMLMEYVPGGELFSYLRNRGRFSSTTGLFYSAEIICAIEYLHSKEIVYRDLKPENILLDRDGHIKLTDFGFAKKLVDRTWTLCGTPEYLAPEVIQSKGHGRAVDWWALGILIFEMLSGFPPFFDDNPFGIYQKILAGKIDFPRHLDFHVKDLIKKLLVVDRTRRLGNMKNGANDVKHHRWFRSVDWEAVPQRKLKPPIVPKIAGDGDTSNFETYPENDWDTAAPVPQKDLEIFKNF
Test: KINOMEscan competition binding
Settings: compound 10.0 µM

Sample smiles | Reported
CCC(=O)N1CCN(c2ccc(-n3c(=O)ccc4cnc5ccc(-c6cnc7ccccc7c6)cc5c43)cc2C(F)(F)F)CC1 | 83%
CC(C)n1nc(-c2cc3cc(O)ccc3[nH]2)c2c(N)ncnc21 | 100%
COC(=O)Nc1ccc(-c2nc(N3CCOCC3)c3cnn(C4CCN(C(=O)OC)CC4)c3n2)cc1 | 100%

Measured on PRKX (human) (UniProt P51817), "COc1ccc(-c2ccc3c(N4CCOCC4)nc(N4C[C@@H](C)O[C@@H](C)C4)nc3n2)cc1CO" has a documented kinase still bound, per cent of control of 100%
